These measurements were taken from the supplement of paper PMC10567573.

Assign protein stability index to each entry below.
B1: TMEM175 (parent)
chain: ALLHQAETLQPSVWFGGREHVLMF

variants of: B1; assay: protein stability index of a GFP-peptide fusion (GPS, HEK-293T) (PSI 1-6); higher = more stable; conditions: c terminus: a fixed tail appended;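 note: lentivirally expressed fusions sorted by FACS into six bins by GFP to DsRed ratio, PSI derived from sequencing read proportions per bin multiplied by bin number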
Answer using only a numeral; do not append any unit.

Ask | For the variant shown here, ALLHQAETLQKSVWFGGREHVLMF [P11K] , give the reported protein stability index.
Reply | 2.59

Ask | For the variant shown here, ALLHQAETLQPSVWFGDREHVLMF [G17D] , give the reported protein stability index.
Reply | 1.27

Ask | For the variant shown here, ALLHQAETLQPSVWFGGRENVLMF [H20N] , give the reported protein stability index.
Reply | 2.48

Ask | For the variant shown here, ALLHQAETLQPSVWFGGREHVKMF [L22K] , give the reported protein stability index.
Reply | 1.94

Ask | For the variant shown here, ALLHQAETLQPSVWFGGQEHVLMF [R18Q] , give the reported protein stability index.
Reply | 2.33

Ask | For the variant shown here, ALLHQAETLQPSVWFGGREHMLMF [V21M] , give the reported protein stability index.
Reply | 2.55

Ask | For the variant shown here, ALLHRAETLQPSVWFGGREHVLMF [Q5R] , give the reported protein stability index.
Reply | 2.33

Ask | For the variant shown here, ALLHQCETLQPSVWFGGREHVLMF [A6C] , give the reported protein stability index.
Reply | 3.75

Ask | For the variant shown here, ALLHQAETLQPSVWFGGREHCLMF [V21C] , give the reported protein stability index.
Reply | 2.73

Ask | For the variant shown here, AMLHQAETLQPSVWFGGREHVLMF [L2M] , give the reported protein stability index.
Reply | 1.93

Ask | For the variant shown here, ALLHQKETLQPSVWFGGREHVLMF [A6K] , give the reported protein stability index.
Reply | 1.68

Ask | For the variant shown here, ALLHQAETLQPSVWFGGREHVLRF [M23R] , give the reported protein stability index.
Reply | 1.03

Ask | For the variant shown here, ALLQQAETLQPSVWFGGREHVLMF [H4Q] , give the reported protein stability index.
Reply | 1.73

Ask | For the variant shown here, ALLHSAETLQPSVWFGGREHVLMF [Q5S] , give the reported protein stability index.
Reply | 2.72

Ask | For the variant shown here, ALLHQAETLQPHVWFGGREHVLMF [S12H] , give the reported protein stability index.
Reply | 1.15

Ask | For the variant shown here, ALLHQAETLQPSVWFGGREHELMF [V21E] , give the reported protein stability index.
Reply | 1.53

Ask | For the variant shown here, ALLHQAYTLQPSVWFGGREHVLMF [E7Y] , give the reported protein stability index.
Reply | 1.78

Ask | For the variant shown here, ALLHQAETLQPSVWFGVREHVLMF [G17V] , give the reported protein stability index.
Reply | 2.62

Ask | For the variant shown here, CLLHQAETLQPSVWFGGREHVLMF [A1C] , give the reported protein stability index.
Reply | 1.71

Ask | For the variant shown here, ALLHQAETLQPSVWFGGREHVLMD [F24D] , give the reported protein stability index.
Reply | 2.69

Ask | For the variant shown here, ALLHQAETLQPSVIFGGREHVLMF [W14I] , give the reported protein stability index.
Reply | 2.22

Ask | For the variant shown here, ALLHQQETLQPSVWFGGREHVLMF [A6Q] , give the reported protein stability index.
Reply | 1.87

Ask | For the variant shown here, ALLHQAETLQPSVWFGGREHVLLF [M23L] , give the reported protein stability index.
Reply | 3.66

Ask | For the variant shown here, ASLHQAETLQPSVWFGGREHVLMF [L2S] , give the reported protein stability index.
Reply | 2.83

Ask | For the variant shown here, ALLHQAETEQPSVWFGGREHVLMF [L9E] , give the reported protein stability index.
Reply | 1.16

Ask | For the variant shown here, ALLHQAETLQPSVEFGGREHVLMF [W14E] , give the reported protein stability index.
Reply | 1.38

Ask | For the variant shown here, ALLHQAETLQPSVWFGGREHVCMF [L22C] , give the reported protein stability index.
Reply | 3.13

Ask | For the variant shown here, ALLHQAETLQPSVWFDGREHVLMF [G16D] , give the reported protein stability index.
Reply | 2.04

Ask | For the variant shown here, ALLHQAETLQPSVWFGGREHVLME [F24E] , give the reported protein stability index.
Reply | 2.15

Ask | For the variant shown here, APLHQAETLQPSVWFGGREHVLMF [L2P] , give the reported protein stability index.
Reply | 1.87

Ask | For the variant shown here, ALLHQAETLQPSVWFGGREHVLMS [F24S] , give the reported protein stability index.
Reply | 2.56

Ask | For the variant shown here, ALLHQAETLQPSVWFGGKEHVLMF [R18K] , give the reported protein stability index.
Reply | 3.39

Ask | For the variant shown here, ALLHQAETLQPSVWDGGREHVLMF [F15D] , give the reported protein stability index.
Reply | 2.29

Ask | For the variant shown here, ALLHQPETLQPSVWFGGREHVLMF [A6P] , give the reported protein stability index.
Reply | 2.43

Ask | For the variant shown here, ALLHQAETLQPSVWFGQREHVLMF [G17Q] , give the reported protein stability index.
Reply | 1.4

Ask | For the variant shown here, ALLHQAETLQASVWFGGREHVLMF [P11A] , give the reported protein stability index.
Reply | 1.78

Ask | For the variant shown here, ALLHQASTLQPSVWFGGREHVLMF [E7S] , give the reported protein stability index.
Reply | 2.22

Ask | For the variant shown here, ALLHQEETLQPSVWFGGREHVLMF [A6E] , give the reported protein stability index.
Reply | 1.54

Ask | For the variant shown here, ALLHQAETLQPSVNFGGREHVLMF [W14N] , give the reported protein stability index.
Reply | 1.3

Ask | For the variant shown here, ALLHFAETLQPSVWFGGREHVLMF [Q5F] , give the reported protein stability index.
Reply | 1.43

Ask | For the variant shown here, ALLHQAETLQPQVWFGGREHVLMF [S12Q] , give the reported protein stability index.
Reply | 1.82

Ask | For the variant shown here, ALLHQAETLQPSVWFGGRPHVLMF [E19P] , give the reported protein stability index.
Reply | 2.37

Ask | For the variant shown here, ALGHQAETLQPSVWFGGREHVLMF [L3G] , give the reported protein stability index.
Reply | 2.83

Ask | For the variant shown here, ALLHQAETSQPSVWFGGREHVLMF [L9S] , give the reported protein stability index.
Reply | 1.36

Ask | For the variant shown here, ALLHQAETLQPSVWFGGFEHVLMF [R18F] , give the reported protein stability index.
Reply | 2.29

Ask | For the variant shown here, ALLHQAETLQPSVWFGGREHDLMF [V21D] , give the reported protein stability index.
Reply | 1.77

Ask | For the variant shown here, ALLHQAETLQPSVWFGGSEHVLMF [R18S] , give the reported protein stability index.
Reply | 1.15

Ask | For the variant shown here, ALLHQAETLQDSVWFGGREHVLMF [P11D] , give the reported protein stability index.
Reply | 2.79

Ask | For the variant shown here, ALLHQAEWLQPSVWFGGREHVLMF [T8W] , give the reported protein stability index.
Reply | 1.69

Ask | For the variant shown here, ALLHQAETLQPSVWFGWREHVLMF [G17W] , give the reported protein stability index.
Reply | 1.67

Ask | For the variant shown here, ALLHQAETLQPSMWFGGREHVLMF [V13M] , give the reported protein stability index.
Reply | 2.46

Ask | For the variant shown here, ALLHQAETLQPSQWFGGREHVLMF [V13Q] , give the reported protein stability index.
Reply | 3.1

Ask | For the variant shown here, ELLHQAETLQPSVWFGGREHVLMF [A1E] , give the reported protein stability index.
Reply | 1.02

Ask | For the variant shown here, ALLHQAETLQPSVWFGGEEHVLMF [R18E] , give the reported protein stability index.
Reply | 1.76

Ask | For the variant shown here, ALLHQAWTLQPSVWFGGREHVLMF [E7W] , give the reported protein stability index.
Reply | 3.4

Ask | For the variant shown here, ATLHQAETLQPSVWFGGREHVLMF [L2T] , give the reported protein stability index.
Reply | 1.53

Ask | For the variant shown here, ALLHQAETLWPSVWFGGREHVLMF [Q10W] , give the reported protein stability index.
Reply | 1.51

Ask | For the variant shown here, ALLHQAETLQPSVWFGGREPVLMF [H20P] , give the reported protein stability index.
Reply | 3.07

Ask | For the variant shown here, ALLHQAETLQPSVWFLGREHVLMF [G16L] , give the reported protein stability index.
Reply | 2.28

Ask | For the variant shown here, ALLHQAETLQPSVWFGGRYHVLMF [E19Y] , give the reported protein stability index.
Reply | 1.81

Ask | For the variant shown here, ALLHDAETLQPSVWFGGREHVLMF [Q5D] , give the reported protein stability index.
Reply | 2.03

Ask | For the variant shown here, ALLHQAETLQPSVWFGGRFHVLMF [E19F] , give the reported protein stability index.
Reply | 1.97

Ask | For the variant shown here, ALLHQAETLNPSVWFGGREHVLMF [Q10N] , give the reported protein stability index.
Reply | 3.13

Ask | For the variant shown here, ALLHQAETLQPSVWFGGWEHVLMF [R18W] , give the reported protein stability index.
Reply | 3.12

Ask | For the variant shown here, ALLHQAETLQPSVWFGGRLHVLMF [E19L] , give the reported protein stability index.
Reply | 2.74

Ask | For the variant shown here, ALLHQAETLQPSVWFGGREMVLMF [H20M] , give the reported protein stability index.
Reply | 3.07

Ask | For the variant shown here, ALLHQAETLQPSVWGGGREHVLMF [F15G] , give the reported protein stability index.
Reply | 2.22

Ask | For the variant shown here, ALLHQAETLQPSVWRGGREHVLMF [F15R] , give the reported protein stability index.
Reply | 2.02

Ask | For the variant shown here, ADLHQAETLQPSVWFGGREHVLMF [L2D] , give the reported protein stability index.
Reply | 2.01

Ask | For the variant shown here, ALLHQAHTLQPSVWFGGREHVLMF [E7H] , give the reported protein stability index.
Reply | 3

Ask | For the variant shown here, ALLHQAETLQPSIWFGGREHVLMF [V13I] , give the reported protein stability index.
Reply | 2.25

Ask | For the variant shown here, ALLHQAETLQPSVWFGGREHVGMF [L22G] , give the reported protein stability index.
Reply | 1.77

Ask | For the variant shown here, AHLHQAETLQPSVWFGGREHVLMF [L2H] , give the reported protein stability index.
Reply | 1.48

Ask | For the variant shown here, ALLHQAETLQPSEWFGGREHVLMF [V13E] , give the reported protein stability index.
Reply | 1.86

Ask | For the variant shown here, ALLHQAETLQPSVWFGGMEHVLMF [R18M] , give the reported protein stability index.
Reply | 2.03

Ask | For the variant shown here, ALCHQAETLQPSVWFGGREHVLMF [L3C] , give the reported protein stability index.
Reply | 2.26

Ask | For the variant shown here, ALLHQAEELQPSVWFGGREHVLMF [T8E] , give the reported protein stability index.
Reply | 2.03

Ask | For the variant shown here, ALLHEAETLQPSVWFGGREHVLMF [Q5E] , give the reported protein stability index.
Reply | 1.07

Ask | For the variant shown here, ALLHQAETLQPSVWFGGREHVPMF [L22P] , give the reported protein stability index.
Reply | 2.05

Ask | For the variant shown here, ALLHQAETLQPSVWFGGIEHVLMF [R18I] , give the reported protein stability index.
Reply | 3.13

Ask | For the variant shown here, ALLHQAETAQPSVWFGGREHVLMF [L9A] , give the reported protein stability index.
Reply | 2.42

Ask | For the variant shown here, ALLHQAETLQQSVWFGGREHVLMF [P11Q] , give the reported protein stability index.
Reply | 1.38

Ask | For the variant shown here, ALSHQAETLQPSVWFGGREHVLMF [L3S] , give the reported protein stability index.
Reply | 2.25

Ask | For the variant shown here, ALLHQAETLQPSVWFGGREHVLMW [F24W] , give the reported protein stability index.
Reply | 2.13

Ask | For the variant shown here, ALLHVAETLQPSVWFGGREHVLMF [Q5V] , give the reported protein stability index.
Reply | 3.06

Ask | For the variant shown here, ALLHQAETLIPSVWFGGREHVLMF [Q10I] , give the reported protein stability index.
Reply | 2.49

Ask | For the variant shown here, ALLHQAETLQPSVVFGGREHVLMF [W14V] , give the reported protein stability index.
Reply | 1.91

Ask | For the variant shown here, ALLHQFETLQPSVWFGGREHVLMF [A6F] , give the reported protein stability index.
Reply | 3.21

Ask | For the variant shown here, ALLHQAETLPPSVWFGGREHVLMF [Q10P] , give the reported protein stability index.
Reply | 2.16

Ask | For the variant shown here, ALTHQAETLQPSVWFGGREHVLMF [L3T] , give the reported protein stability index.
Reply | 2.37

Ask | For the variant shown here, ALLHQAETLQPSVWFGGREHVVMF [L22V] , give the reported protein stability index.
Reply | 3.06
